# TARGET ENTITY: 3-hydroxy-3-methylglutaryl-coenzyme A reductase (Rattus norvegicus) (UniProt P51639)
# Sequence (P51639 whole entry): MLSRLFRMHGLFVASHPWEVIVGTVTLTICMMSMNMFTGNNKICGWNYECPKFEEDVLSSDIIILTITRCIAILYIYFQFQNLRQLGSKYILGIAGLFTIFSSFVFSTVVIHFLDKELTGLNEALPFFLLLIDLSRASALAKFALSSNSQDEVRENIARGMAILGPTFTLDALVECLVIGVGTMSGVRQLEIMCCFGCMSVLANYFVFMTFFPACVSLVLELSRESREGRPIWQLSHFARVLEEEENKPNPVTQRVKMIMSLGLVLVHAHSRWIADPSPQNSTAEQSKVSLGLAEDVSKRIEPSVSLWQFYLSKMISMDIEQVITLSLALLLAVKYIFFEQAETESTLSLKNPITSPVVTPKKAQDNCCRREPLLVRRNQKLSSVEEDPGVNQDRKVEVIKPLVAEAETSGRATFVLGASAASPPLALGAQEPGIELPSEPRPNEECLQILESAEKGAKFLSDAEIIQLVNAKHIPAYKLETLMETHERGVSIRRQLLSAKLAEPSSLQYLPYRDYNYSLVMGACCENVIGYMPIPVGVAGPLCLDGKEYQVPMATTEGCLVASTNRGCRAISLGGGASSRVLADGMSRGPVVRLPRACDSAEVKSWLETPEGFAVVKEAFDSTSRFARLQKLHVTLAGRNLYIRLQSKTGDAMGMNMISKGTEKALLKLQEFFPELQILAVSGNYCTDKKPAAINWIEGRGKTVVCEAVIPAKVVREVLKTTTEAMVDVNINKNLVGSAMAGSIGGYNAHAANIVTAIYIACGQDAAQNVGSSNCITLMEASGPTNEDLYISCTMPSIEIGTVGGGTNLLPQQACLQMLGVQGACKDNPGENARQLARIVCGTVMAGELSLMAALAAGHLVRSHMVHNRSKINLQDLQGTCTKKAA
# TEST PROTOCOL: Inhibitory activity against partially purified rat liver HMG CoA reductase at 20 ug/ml concentration
PROPERTY MEASURED: inhibition

COMPOUND: O=C1C[C@H](O)C[C@@H](/C=C/c2ccccc2)O1
PROPERTY MEASURED: inhibition
VALUE: 14%
//
COMPOUND: O=C1C[C@H](O)CC(CCC2CCCCC2)O1 (stereo not given in full)
PROPERTY MEASURED: inhibition
VALUE: 17%
//
COMPOUND: O=C1C[C@H](O)CC(c2cccc3ccccc23)O1 (stereo not given in full)
PROPERTY MEASURED: inhibition
VALUE: 7%
//
COMPOUND: O=C1C[C@H](O)C[C@@H](C2CCCCC2)O1
PROPERTY MEASURED: inhibition
VALUE: 6%
//
COMPOUND: O=C1C[C@H](O)CC(c2ccc(Cl)cc2Cl)O1 (stereo not given in full)
PROPERTY MEASURED: inhibition
VALUE: 27%
//
COMPOUND: O=C1C[C@H](O)C[C@@H](/C=C/c2ccc(Cl)cc2Cl)O1 (racemic)
PROPERTY MEASURED: inhibition
VALUE: 84%
//
COMPOUND: O=C1C[C@H](O)C[C@@H](CC[C@@H]2CCC[C@@H]3CCCC[C@@H]32)O1
PROPERTY MEASURED: inhibition
VALUE: 44%
//
COMPOUND: O=C1C[C@H](O)C[C@@H](/C=C/c2ccc(Cl)cc2Cl)O1 (stereo in doubt; 6a(+))
PROPERTY MEASURED: inhibition
VALUE: 86%
//
COMPOUND: O=C1C[C@H](O)CC(CCc2cccc3ccccc23)O1 (stereo not given in full)
PROPERTY MEASURED: inhibition
VALUE: 45%
//
COMPOUND: O=C1C[C@@H](O)C[C@@H](/C=C/c2ccc(Cl)cc2Cl)O1 (racemic)
PROPERTY MEASURED: inhibition
VALUE: 17%

The reported numbers originate from ChEMBL document CHEMBL1122959.
